- Protocol details: Rat pharmacokinetics
- Type: in vivo, Rat (male, SD)
- Condition info: male, Sprague Dawley, whole blood, iv, 1 mg/kg
Observation type: AUC(0-inf) (ng·h/mL)
Report the value in ng·h/mL with no unit label.

Given the entry `C[C@H]1CN(c2n[nH]c3nc(N[C@H]4CC[C@H](NS(=O)(=O)CCC(F)(F)F)CC4)ncc23)CCO1` , report its measured AUC(0-inf). 1510

---

- Protocol details: Solubility in simulated physiological media
- Type: physicochemical
- Condition info: fed simulated intestinal fluid (FeSSIF), pH 6.5
Observation type: solubility at 4 h (µg/mL)
Report the value in µg/mL with no unit label.

Given the entry `C[C@H]1CN(c2n[nH]c3nc(N[C@H]4CC[C@H](NS(=O)(=O)CCC(F)(F)F)CC4)ncc23)CCO1` , report its measured solubility at 4 h. 25

---

- Protocol details: Mouse pharmacokinetics
- Assay type: in vivo, Mouse (male, CD1)
- Condition info: male, CD1, mouse, whole blood, po, 100 mg/kg
Observation type: Tmax (h)
Report the value in h with no unit label.

Given the entry `C[C@H]1CN(c2n[nH]c3nc(N[C@H]4CC[C@H](NS(=O)(=O)CCC(F)(F)F)CC4)ncc23)CCO1` , report its measured Tmax. 3

---

- Protocol details: Mouse pharmacokinetics
- Type: in vivo, Mouse (male, CD1)
- Condition info: male, CD1, mouse, whole blood, po, 300 mg/kg
Observation type: Tmax (h)
Report the value in h with no unit label.

Given the entry C[C@H]1CN(c2n[nH]c3nc(N[C@H]4CC[C@H](NS(=O)(=O)CCC(F)(F)F)CC4)ncc23)CCO1 [Compound 7] , report its measured Tmax. 5

---

- Protocol details: Rat pharmacokinetics
- Type: in vivo, Rat (male, SD)
- Condition info: male, Sprague Dawley, whole blood, po, 100 mg/kg
Observation type: Tmax (h)
Report the value in h with no unit label.

Given the entry `C[C@H]1CN(c2n[nH]c3nc(N[C@H]4CC[C@H](NS(=O)(=O)CCC(F)(F)F)CC4)ncc23)CCO1` , report its measured Tmax. 7.3

---

- Protocol details: Mouse pharmacokinetics
- Type: in vivo, Mouse (male, CD1)
- Condition info: male, CD1, mouse, whole blood, po, 300 mg/kg
Observation type: Cmax (ng/mL)
Report the value in ng/mL with no unit label.

Given the entry C[C@H]1CN(c2n[nH]c3nc(N[C@H]4CC[C@H](NS(=O)(=O)CCC(F)(F)F)CC4)ncc23)CCO1 [Compound 7] , report its measured Cmax. 11400

---

- Protocol details: Rat pharmacokinetics
- Type: in vivo, Rat (male, SD)
- Condition info: male, Sprague Dawley, whole blood, po, 10 mg/kg
Observation type: AUC(0-inf) (ng·h/mL)
Report the value in ng·h/mL with no unit label.

Given the entry `C[C@H]1CN(c2n[nH]c3nc(N[C@H]4CC[C@H](NS(=O)(=O)CCC(F)(F)F)CC4)ncc23)CCO1` , report its measured AUC(0-inf). 6480

---

- Protocol details: Rat pharmacokinetics
- Type: in vivo, Rat (male, SD)
- Condition info: male, Sprague Dawley, whole blood, iv, 1 mg/kg
Observation type: Vd

Given the entry `C[C@H]1CN(c2n[nH]c3nc(N[C@H]4CC[C@H](NS(=O)(=O)CCC(F)(F)F)CC4)ncc23)CCO1` , report its measured Vd. 0.4 L/kg
